# Tested on: PPARg DBDmut:RXRa IVT, anti-PPARg (DBD mutation: PPARg1 K132A/R137A, NR concentration 270 nM, RXRa partner concentration 90 nM)
# ASSAY_PROCEDURE: PBM binding z-score (relative to random genomic background probes); higher = stronger binding; sequences stand for … in GC…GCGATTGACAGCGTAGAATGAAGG

| ITEM_SEQUENCE | PBM binding z-score |
| --- | --- |
| CCTAGCTGGCCAGGGTCACTCAAGCATTTCGCTT | -0.962 |
| TCTAGTTGGTCAACGGTCACACACTCGAAATGCG | 0.499 |
| CCTTCTGGGCCATCAGGTCATTGATATCAACGTT | 0.4 |
| GCTCGGAGGACAAGGTCAGAGTTTTGTCCGTAGA | -0.873 |
| TCTTGTACATCAAGCAGGTTAAGAAAGCCTGAGT | 0.553 |
| AGAACGAGGGCACGCTGAGTTGAAAGCAGAGTAG | 0.808 |
| GCTGCTAGTTCAGGTTGGTCAGCTAACGGGTACG | -0.826 |
| ATCGAAAGGTCGACGGGGTGAGTATACACCGTTT | 1.15 |
| TCTTGTAGATCAGAGGTTAAGAAAGCCGAAGCCT | 0.138 |
| ACAGACCGGTGAGTGAAGGTAACTCAGCTGGACG | -0.662 |
| ACTTACGGGTCAACGAGGTTTTAGCACGCGTATA | 0.283 |
| CCATACGGGTCACTCCAGGTTATAGCATCGGAGT | -0.54 |
| TCAGACAGGTGAAGGTAACCCAGGTACGCAGTCG | 0.501 |
| TCTCGGAGGACACGAGAGGTCAGAGCTCGACATC | -0.0103 |
| GATACAGGGTCAAGGCCATAGTACGCGTATTGAT | 0.702 |
| ATCGAAAGGTCGAAGGTGGGTATACCCACCCGAA | 0.29 |
| CAACCAAGGTGAACAAGGTCGTTGATTACTATTC | 0.422 |
| GGGACTGGGGCATCAGCAGGTTACCATAACTTAA | 0.985 |
| CCTCGGAGGACAGAAGGTCCGAGCTGTCCGCTTT | -0.692 |
| GATACAGGGTCAGCTAGAGGCCAGAGCATGGAAA | 0.0195 |
| CCAGACAGGTGAGAGGGTAACTCAGCCTCGATTA | -0.651 |
| CCGAGTGGGGCATAAGGTTACCATAAGCCAGCCC | -1.47 |
| CCAGACAGGTGAAAGGTGACTCAGTCTGGTACGC | 0.243 |
| CCTGCTAGGTCACTGGTCAGCTAAAGCAGCTCGC | 0.683 |
| CCTACTGGGCCATTCAGAGATCATTGATCATATG | 0.0285 |
| CTACCAAGGTGAACAAGGACGTTGATTACTATTC | 0.0703 |

---

# System: PXR:RXRa (NR concentration 270 nM, RXRa partner concentration 90 nM)
# ASSAY_PROCEDURE: PBM binding z-score (relative to random genomic background probes); higher = stronger binding; sequences stand for … in GC…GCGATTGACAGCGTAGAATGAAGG
Classification field: label 1 = PBM binding z-score at or over 1; label 0 = PBM binding z-score under 1.

| ITEM_SEQUENCE | EXPERIMENTAL_SYSTEM | GROUP |
| --- | --- | --- |
| ACAGACACGTGAGTGAAGGTAACTCAGCTGGACG | PXR:RXRa (NR concentration 270 nM, RXRa partner concentration 90 nM) | label 0 |
| TCTATTAGTTGATTAAGGCAACCGAAACAGCGGA | PXR:RXRa (NR concentration 270 nM, RXRa partner concentration 90 nM) | label 0 |
| ACTATCAGTTGAGACGAGGGCAACCGATAGGTTG | PXR:RXRa (NR concentration 270 nM, RXRa partner concentration 90 nM) | label 1 |
| GATACAGGGTCAGCAAGAGGCCAGAGTATGGAAA | PXR:RXRa (NR concentration 270 nM, RXRa partner concentration 90 nM) | label 1 |
| TCGAGTAGGATACCAATGGGGCATTCAGCTTTCT | PXR:RXRa (NR concentration 270 nM, RXRa partner concentration 90 nM) | label 0 |
| TCTTGTCGATCAAGCAGGTTAAGAAAGCCTGAGT | PXR:RXRa (NR concentration 270 nM, RXRa partner concentration 90 nM) | label 0 |
| CCTACCAGGCCAATCTGGGTCACTCAAGGCTTGA | PXR:RXRa (NR concentration 270 nM, RXRa partner concentration 90 nM) | label 1 |
| ATCTCTAGGTACAGATAGTTCAGTGAATGCAAAT | PXR:RXRa (NR concentration 270 nM, RXRa partner concentration 90 nM) | label 0 |
| CCTACTGTGCCATCAGGTCATTGATATCAACGTT | PXR:RXRa (NR concentration 270 nM, RXRa partner concentration 90 nM) | label 1 |
| GCGTCTGGGGCAAAGCAGGTTACCATAAGGTTGG | PXR:RXRa (NR concentration 270 nM, RXRa partner concentration 90 nM) | label 0 |
| ATACCAAGGTGATCATGAGGTCGTTGATACTAAC | PXR:RXRa (NR concentration 270 nM, RXRa partner concentration 90 nM) | label 1 |
| GCGACTGGTGCAAAGCAGGTTACCATAAGGTTGG | PXR:RXRa (NR concentration 270 nM, RXRa partner concentration 90 nM) | label 0 |
| CCTACTGGGACACGAAAGGTCATTGATTCAGTGA | PXR:RXRa (NR concentration 270 nM, RXRa partner concentration 90 nM) | label 1 |
| CGTCCAAGGTCATCAGGTCAGTGAAAGCGACGTG | PXR:RXRa (NR concentration 270 nM, RXRa partner concentration 90 nM) | label 1 |
| CCTCGGAGGACAGAAGGTCAGAGCTGTCCGCTTT | PXR:RXRa (NR concentration 270 nM, RXRa partner concentration 90 nM) | label 1 |
| CGAACTAGCTCATCCAGGACAGTGAATACATTGA | PXR:RXRa (NR concentration 270 nM, RXRa partner concentration 90 nM) | label 0 |
| ATATGTAGGTTACATCCGGGTCACTCAGGCTATG | PXR:RXRa (NR concentration 270 nM, RXRa partner concentration 90 nM) | label 1 |
| CCGACTGGGGCAGAAAAGTTACCATACCATCCGG | PXR:RXRa (NR concentration 270 nM, RXRa partner concentration 90 nM) | label 0 |
| CCTACTGGGCCAAGGACATTGATCAGTCAAAGCA | PXR:RXRa (NR concentration 270 nM, RXRa partner concentration 90 nM) | label 0 |
| TCATATAGGTAAACAGGTGAAACTCCGTAAGTTA | PXR:RXRa (NR concentration 270 nM, RXRa partner concentration 90 nM) | label 0 |
| CAGCCTAGGTCGGGGCCAGTATAGGAGGAACGTT | PXR:RXRa (NR concentration 270 nM, RXRa partner concentration 90 nM) | label 0 |
| TGTCAAAGTTCAAAGGTAACGTAAGTATCCACAC | PXR:RXRa (NR concentration 270 nM, RXRa partner concentration 90 nM) | label 1 |
| CAGACAGGGTCAGCTAGGCCAGAGTAGGGACGGC | PXR:RXRa (NR concentration 270 nM, RXRa partner concentration 90 nM) | label 1 |
| CGTCAAAGTTAAACTAAGGTAACGTAAAGCACGC | PXR:RXRa (NR concentration 270 nM, RXRa partner concentration 90 nM) | label 0 |
| TCTCGGAGGACACGAAAGGTCAGAGTTCGACATC | PXR:RXRa (NR concentration 270 nM, RXRa partner concentration 90 nM) | label 1 |
| GCTTGGAGATCAAGGTTAAGAAAGACTAAGCTAA | PXR:RXRa (NR concentration 270 nM, RXRa partner concentration 90 nM) | label 0 |
| CTCGAAAGGTCGGATGAGGTGAGTATACGGATAA | PXR:RXRa (NR concentration 270 nM, RXRa partner concentration 90 nM) | label 1 |
| CCTTACGGGTCACGAGGTTATAGAACGACGAGCG | PXR:RXRa (NR concentration 270 nM, RXRa partner concentration 90 nM) | label 1 |
| TCGAATAGGTTACCAATGGGGCATTCAGCTTTCT | PXR:RXRa (NR concentration 270 nM, RXRa partner concentration 90 nM) | label 0 |
| CCTACTGGGCCATCATGTCATTGATATCAACGTT | PXR:RXRa (NR concentration 270 nM, RXRa partner concentration 90 nM) | label 0 |
| CAAACTAGGTCACCGGAAGGTCAAAGGCCGCATG | PXR:RXRa (NR concentration 270 nM, RXRa partner concentration 90 nM) | label 1 |
| CCTACTGGGGCAAGGTTACCATAACGCACAGCCA | PXR:RXRa (NR concentration 270 nM, RXRa partner concentration 90 nM) | label 0 |
| ACTCGGAGGACAAAGGTCAGAGCTACGCCAGTGA | PXR:RXRa (NR concentration 270 nM, RXRa partner concentration 90 nM) | label 1 |
| TGAATGAGCTTATAAGATCAGGGAACGTTGCAAA | PXR:RXRa (NR concentration 270 nM, RXRa partner concentration 90 nM) | label 0 |
| GCGACTGCGGCATCAGCAGGTTACCATAACTTAA | PXR:RXRa (NR concentration 270 nM, RXRa partner concentration 90 nM) | label 0 |
| TCTCGGAGGACACGAAAGGTAAGAGCTCGACATC | PXR:RXRa (NR concentration 270 nM, RXRa partner concentration 90 nM) | label 0 |
| CCGACTGGGGCATAAGGTTACCATTAGCCAGCCC | PXR:RXRa (NR concentration 270 nM, RXRa partner concentration 90 nM) | label 0 |
| TCGAGTAGGTTAGAGGCATTCAGAATGGCGTCGA | PXR:RXRa (NR concentration 270 nM, RXRa partner concentration 90 nM) | label 0 |
| TCTAGTTGGTCAAAGGTCACAGACTCGAAATGCG | PXR:RXRa (NR concentration 270 nM, RXRa partner concentration 90 nM) | label 1 |
| TGCATGAGGTTATAAGATCAGGGAACGTTGCAAA | PXR:RXRa (NR concentration 270 nM, RXRa partner concentration 90 nM) | label 0 |
| CGAACTAGGTCAAGGGCAGTGAATCTCCGCACGC | PXR:RXRa (NR concentration 270 nM, RXRa partner concentration 90 nM) | label 1 |
| AATACAGGGTCACTAGGCCTGAGTAGGTACGAAT | PXR:RXRa (NR concentration 270 nM, RXRa partner concentration 90 nM) | label 1 |
| TCTTGTAGCTCAATAGAGGTTAAGAAAGTGCGCT | PXR:RXRa (NR concentration 270 nM, RXRa partner concentration 90 nM) | label 1 |
| ACTATTAGTAGACTTAGGGCAACCGATACGACGC | PXR:RXRa (NR concentration 270 nM, RXRa partner concentration 90 nM) | label 0 |
| CGTCCAAGGTCAAGGTCAGCGAAAGAGACTCGAA | PXR:RXRa (NR concentration 270 nM, RXRa partner concentration 90 nM) | label 1 |
| TTACCAAGGTGAAAGGTCGTTGATGCACGCCTTG | PXR:RXRa (NR concentration 270 nM, RXRa partner concentration 90 nM) | label 1 |
| CCTACTGGGCCAATGGTCATTGATTCCAATGCTC | PXR:RXRa (NR concentration 270 nM, RXRa partner concentration 90 nM) | label 0 |
| CCTACTGGGGCATTCAGAGGTCATTGATCATATG | PXR:RXRa (NR concentration 270 nM, RXRa partner concentration 90 nM) | label 1 |
| CGTAGCAGGCCAATCTGGGTCACTCAAGGCTTGA | PXR:RXRa (NR concentration 270 nM, RXRa partner concentration 90 nM) | label 1 |
| CCTAGTTAGTCAGGAGGTCACACACCGGATATGA | PXR:RXRa (NR concentration 270 nM, RXRa partner concentration 90 nM) | label 1 |
| GCAGACAGGTGACACGCAGGTAACTCAGGGTGGC | PXR:RXRa (NR concentration 270 nM, RXRa partner concentration 90 nM) | label 0 |

These data points were gathered from the supplement of paper PMC6555819.
